Values compiled from ChEMBL document CHEMBL1275491.

Assay: Systemic clearance in analbuminemic Nagase rat plasma at 1 mg/kg, iv administered as single dose by high-performance liquid chromatography
Type: ADME, organism-based
Parameters: dose 1 mg/kg, route intravenous
Starred links: 1 amine or outer side, 2 acyl side, 3 side chain; linkers in the order of their positions; H or OH if unused. Positions of bridges follow the written chain, without caps; N, C: chain ends. Non-standard residues stand in square brackets, D forms with d. Residues, ends and D or L forms follow the SMILES beside them. *: point of attachment. hTyr(3S-OH,4S-OH,3'-OSO3H) = N[C@H](C(=O)O)[C@H](O)[C@@H](O)c1ccc(O)c(OS(=O)(=O)O)c1; Orn(4R-OH,5R-OH) = O=C([C@H](C[C@@H](O)[C@@H](O)N[*:3])N[*:1])[*:2]; Pro(3S-OH,4S-Me) = C[C@H]1CN[C@H](C(=O)O)[C@H]1O; X1 = CCCCCOc1ccc(-c2cc(-c3ccc(C(=O)*)cc3)no2)cc1; Gln(3R-OH) = NC(=O)C[C@@H](O)[C@H](N)C(=O)O; Hyp = O=C(O)[C@@H]1C[C@@H](O)CN1
PARAMETER_MEASURED: clearance (mL/min/kg)

- CCCCCOc1ccc(-c2cc(-c3ccc(C(=O)N[C@H]4C[C@@H](O)[C@@H](O)NC(=O)[C@@H]5[C@@H](O)[C@@H](C)CN5C(=O)[C@H]([C@H](O)CC(N)=O)NC(=O)[C@H]([C@H](O)[C@@H](O)c5ccc(O)c(OS(=O)(=O)O)c5)NC(=O)[C@@H]5C[C@@H](O)CN5C(=O)[C@H]([C@@H](C)O)NC4=O)cc3)no2)cc1 [MICAFUNGIN] (X1-[Orn(4R-OH,5R-OH)]T[Hyp][hTyr(3S-OH,4S-OH,3'-OSO3H)][Gln(3R-OH)][Pro(3S-OH,4S-Me)]; lactam 1-C): 1.2
